- MEASUREMENT DESCRIPTION: soluble on expression in E. coli; label from the status in PepcDB or PDB records
METRIC NAME: soluble on expression in E. coli

MGSDKIHHHHHHMKKIVERAPTVEEAIEKVVKKYGLGEGEYTVNVLEKGFHGIFGLFSKEAVVEVQITKAYFERRLKEFLTEILQVVDPEVKITVKSSGRSFFVDVESENAGRLIGKHGKTMGALQHIAMIFLNRLSDTKLNVILDMGDYREKRKKSLEKIVEEAVKKAISEKTKVVLDPMFSFERKIVHKLVRKHRGVISYSVGVEPYRRVVIEYSATRREGRRKHDIKESI: not soluble
MSLAPPEGNPAAGKVAAGLCRTCHGLNGFARIPIAPHIGGEHPSYIRHQLEAFRSGTRQHEIMSVVAASLSDAQIADLSAWFAMQKIHVALKPGVDPHAAPEACALCHGADGVAVLEDAPNLAGENSVYLETQLKAFRTGKRTHEIMSPIAAELTDAEIRAAADWYAAVQLEIDEGHHHHHH: not soluble
MPLEGEYEPSPTQWVRDQVELYESSGGTKGTTLMDTGLPVIILTTLGAKSGKIRKTPLMRVEHDGKYAAVASLGGAPKHPVWYYNVLGTPAVELQDGAVRKEFTAREVTGEEKAQWWERAVAAYPPYAEYQEKTDREIPVFVLEPAG: not soluble
